PROCEDURE_DETAILS: Growth inhibition of Staphylococcus aureus USA300
Starred links: 1 amine or outer side, 2 acyl side, 3 side chain; linkers in the order of their positions; H or OH if unused. Non-standard residues stand in square brackets, D forms with d. Residues, ends and D or L forms follow the SMILES beside them. Groups on a side chain read outwards from the residue. *: point of attachment. X1 = CCCCCC[C@@H](OC[C@@H](C)N[*:1])[C@@H](C)C(=O)[*:2]; Cyclobutyl(trans-3-NH2) = N[C@H]1C[C@H](*)C1; X4 = CCCCCCN(CCN[*:1])[C@@H](C)C(=O)[*:2]; Gly(cHept) = N[C@H](C(=O)O)C1CCCCCC1; NMeL = CN[C@@H](CC(C)C)C(=O)O; Chg = N[C@H](C(=O)O)C1CCCCC1; NMeNva = CCC[C@H](NC)C(=O)O; X13 = N[C@H]1C[C@H](N*)C1; Dap = NC[C@H](N)C(=O)O; CO = O=C([*:1])[*:2]; NH(CH2)3NH2 = NCCCN*
MEASUREMENT_NAME: MIC (µM)
One number for each entry, in µM.

A selection of reference data follows.
COMPOUND: CCCCCC[C@H]1OCCCNC(=O)[C@H]([C@H](C)O)NC(=O)[C@H](CN)NC(=O)[C@H](C2CCCCC2)NC(=O)[C@H](CC(C)C)N(C)C(=O)[C@@H]1C
UNITS: µM
MIC: 100
--
COMPOUND: CCCCCCN1CCNC(=O)[C@H](CO[C@H]2C[C@H](N)C2)NC(=O)[C@H](CN)NC(=O)[C@H](C2CCCCC2)NC(=O)[C@H](CC(C)C)N(C)C(=O)[C@@H]1C (cyclo([Chg][Dap]S(Cyclobutyl(trans-3-NH2))[X4][NMeL]))
UNITS: µM
MIC: 100
--
COMPOUND: CCCCCC[C@H]1OC[C@@H](C)NC(=O)[C@H](CNC(=O)N[C@H]2C[C@H](N)C2)NC(=O)[C@H](CN)NC(=O)[C@H](C2CCCCCC2)NC(=O)[C@H](CCC)N(C)C(=O)[C@@H]1C (cyclo([Dap][Dap]([CO-X13])[X1][NMeNva][Gly(cHept)]))
UNITS: µM
MIC: 71

(Q) Give reported MIC value for CCCCCC[C@H]1OC[C@@H](C)NC(=O)[C@H](CC(=O)NCCCN)NC(=O)[C@H](CN)NC(=O)[C@H](C2CCCCCC2)NC(=O)[C@H](CCC)N(C)C(=O)[C@@H]1C (cyclo(D(NH(CH2)3NH2)[X1][NMeNva][Gly(cHept)][Dap]))
(A) 100
